Target: T1, extracellular domain of human KLB expressed with C-terminal HA and hexahistidine tags (human, UniProt Q86Z14 1-996)
T1 construct: also called hKLB-HA-6His; hKLB-HA-6his
T1 sequence: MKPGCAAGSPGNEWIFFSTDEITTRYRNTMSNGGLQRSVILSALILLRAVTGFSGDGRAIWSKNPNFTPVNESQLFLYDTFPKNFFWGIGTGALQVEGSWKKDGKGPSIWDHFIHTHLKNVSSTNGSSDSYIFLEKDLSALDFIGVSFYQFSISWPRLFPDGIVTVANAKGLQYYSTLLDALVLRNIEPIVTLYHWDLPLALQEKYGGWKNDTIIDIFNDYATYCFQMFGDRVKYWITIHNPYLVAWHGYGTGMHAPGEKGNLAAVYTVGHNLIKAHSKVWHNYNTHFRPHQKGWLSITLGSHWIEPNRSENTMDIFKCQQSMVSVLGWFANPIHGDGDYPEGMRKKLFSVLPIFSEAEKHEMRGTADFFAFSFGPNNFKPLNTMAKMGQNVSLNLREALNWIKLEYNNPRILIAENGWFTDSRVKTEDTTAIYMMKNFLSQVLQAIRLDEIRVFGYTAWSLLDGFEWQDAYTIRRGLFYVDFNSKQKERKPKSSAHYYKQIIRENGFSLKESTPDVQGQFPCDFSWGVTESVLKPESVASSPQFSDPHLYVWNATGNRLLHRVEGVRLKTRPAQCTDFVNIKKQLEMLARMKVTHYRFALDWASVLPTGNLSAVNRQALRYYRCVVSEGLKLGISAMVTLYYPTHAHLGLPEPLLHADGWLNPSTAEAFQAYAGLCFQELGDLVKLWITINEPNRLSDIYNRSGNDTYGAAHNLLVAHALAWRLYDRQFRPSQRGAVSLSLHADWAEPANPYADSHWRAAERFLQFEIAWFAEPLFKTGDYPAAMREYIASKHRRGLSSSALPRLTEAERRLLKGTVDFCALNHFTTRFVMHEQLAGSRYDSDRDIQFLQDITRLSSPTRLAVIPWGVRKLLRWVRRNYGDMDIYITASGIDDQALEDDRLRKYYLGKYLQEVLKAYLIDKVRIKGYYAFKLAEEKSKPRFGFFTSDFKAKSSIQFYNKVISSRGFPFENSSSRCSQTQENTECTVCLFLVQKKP
Experiment: SPR, mAb captured, 37 C
property-label: t1/2 (min)
Your answer is read as min, so omit the unit and give the number.

Give the reported t1/2 for this binder. H4H8880P (antibody, V domains shown, human IgG4 Fc (H4H prefix)) VH: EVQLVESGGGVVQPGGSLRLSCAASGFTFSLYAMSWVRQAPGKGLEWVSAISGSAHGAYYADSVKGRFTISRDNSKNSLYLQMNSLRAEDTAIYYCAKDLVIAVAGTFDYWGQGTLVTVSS VL: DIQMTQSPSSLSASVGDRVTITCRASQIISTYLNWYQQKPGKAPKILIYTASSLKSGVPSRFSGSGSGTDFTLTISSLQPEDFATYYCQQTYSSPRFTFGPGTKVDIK
22

Give the reported t1/2 for this binder. H2aM8093N (antibody, V domains shown, mouse IgG2 Fc (H2aM prefix)) VH: QVQLVQSGAEVKRPGSSVKVSCKASGDTFSTYAISWVRQAPGQGLEWMGGIIPVFGTTNYAQKFQDRVTITTDESTRTAYMELSSLRSEDTAVYYCAGIAGPDYWGQGTLVTVSS VL: DIQMTQSPSSLSASVGDRVTITCRASQGIRNYLAWFQQKPGKAPKSLIYLATSLQSGVPSKFSGSGSGTDFTLTISSLQPEDFATYYCQQYYSYPWTFGQGTKVEIK
64.1

Give the reported t1/2 for this binder. H4H8881P (antibody, V domains shown, human IgG4 Fc (H4H prefix)) VH: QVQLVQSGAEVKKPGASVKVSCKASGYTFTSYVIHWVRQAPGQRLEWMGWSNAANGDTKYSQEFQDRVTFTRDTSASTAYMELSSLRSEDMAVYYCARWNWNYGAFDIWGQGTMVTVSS VL: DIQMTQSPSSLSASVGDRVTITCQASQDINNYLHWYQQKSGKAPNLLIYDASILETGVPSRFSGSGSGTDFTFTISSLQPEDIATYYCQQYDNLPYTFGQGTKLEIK
24.9

The values you see were collected from patent US20170174769A1.
